The origin of these recorded values is paper PMC7318222.

Test: Octanol/water partition coefficient (Log P(o/w)), shake flask method
Format: physicochemical
Details: this work
Readout label: logP

{"columns": ["Compound", "Readout label", "Obs value"],
 "data": [
  ["CCCCN(C)C(=O)CCC(=O)N(C)CCCC [MBSA, N,N′‐dimethyl‐N,N′‐dibutylsuccindiamide]", "logP", 1.65],
  ["CCCCN(CCCC)C(=O)CCC(=O)N(CCCC)CCCC [TBSA, N,N,N′,N′‐tetrabutylsuccindiamide]", "logP", 3.77],
  ["CCCCN(CC)C(=O)CCC(=O)N(CC)CCCC [EBSA, N,N′‐diethyl‐N,N′‐dibutylsuccindiamide]", "logP", 2.72],
  ["CCCCN1CCCC1=O [NBP, N‐Butylpyrrolidinone, reference compound]", "logP", 0.99]
]}

###

Biological target: AhR (Homo sapiens, UniProt P35869)
Construct: expression construct for the full-length human receptor under investigation; expressed in transfected cells; host or cells: human U2-OS cells (ATCC HTB-96), stably transfected
Sequence (P35869 11-848): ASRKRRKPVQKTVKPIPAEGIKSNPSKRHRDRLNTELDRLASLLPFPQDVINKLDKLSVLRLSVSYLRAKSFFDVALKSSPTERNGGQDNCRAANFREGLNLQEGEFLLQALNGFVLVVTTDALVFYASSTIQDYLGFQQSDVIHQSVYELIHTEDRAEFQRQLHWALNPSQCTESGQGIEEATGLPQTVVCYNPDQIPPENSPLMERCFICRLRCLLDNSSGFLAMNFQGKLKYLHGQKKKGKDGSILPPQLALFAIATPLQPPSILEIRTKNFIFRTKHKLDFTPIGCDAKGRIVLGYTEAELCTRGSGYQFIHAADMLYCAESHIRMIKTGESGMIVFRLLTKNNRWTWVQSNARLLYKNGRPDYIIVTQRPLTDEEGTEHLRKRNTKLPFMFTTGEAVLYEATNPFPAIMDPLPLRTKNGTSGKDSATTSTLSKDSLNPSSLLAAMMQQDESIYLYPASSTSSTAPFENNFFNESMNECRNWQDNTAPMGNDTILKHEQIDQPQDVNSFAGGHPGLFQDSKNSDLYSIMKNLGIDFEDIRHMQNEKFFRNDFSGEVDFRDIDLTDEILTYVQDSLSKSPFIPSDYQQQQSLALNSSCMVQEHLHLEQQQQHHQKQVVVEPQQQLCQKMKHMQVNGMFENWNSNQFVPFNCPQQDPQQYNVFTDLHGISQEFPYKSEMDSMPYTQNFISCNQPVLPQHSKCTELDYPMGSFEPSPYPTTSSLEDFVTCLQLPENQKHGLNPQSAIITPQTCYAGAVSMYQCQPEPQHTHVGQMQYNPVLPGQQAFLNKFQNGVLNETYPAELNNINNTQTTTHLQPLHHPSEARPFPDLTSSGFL
Assay: AhR CALUX reporter gene assay
Format: cell-based
Parameters: key: –: no effect observed up to the highest test concentration
Details: PC10, 24 h exposure

{"columns": ["Compound", "LEC AhR"],
 "data": [
  ["CCCCN(C)C(=O)CCC(=O)N(C)CCCC [MBSA, N,N′‐dimethyl‐N,N′‐dibutylsuccindiamide]", "–"],
  ["CCCCN1CCCC1=O [NBP, N‐Butylpyrrolidinone, reference compound]", "–"],
  ["CCCCN(CC)C(=O)CCC(=O)N(CC)CCCC [EBSA, N,N′‐diethyl‐N,N′‐dibutylsuccindiamide]", "–"],
  ["CCCCN(CCCC)C(=O)CCC(=O)N(CCCC)CCCC [TBSA, N,N,N′,N′‐tetrabutylsuccindiamide]", "–"],
  ["CN1CCCC1=O [NMP, N‐methyl‐2‐pyrrolidone, reference compound]", "−2.0 Log M"]
]}

###

Experiment: Miscibility with water
Type: physicochemical
Conditions: this work
Readout label: Water misc.

{"columns": ["Compound", "Obs value"],
 "data": [
  ["CCCCN(C)C(=O)CCC(=O)N(C)CCCC [MBSA, N,N′‐dimethyl‐N,N′‐dibutylsuccindiamide]", "no^[a]"],
  ["CCCCN(CC)C(=O)CCC(=O)N(CC)CCCC [EBSA, N,N′‐diethyl‐N,N′‐dibutylsuccindiamide]", "no^[a]"],
  ["CN1CCCC1=O [NMP, N‐methyl‐2‐pyrrolidone, reference compound]", "yes^[a]"],
  ["CN(C)C=O [DMF, N,N‐dimethylformamide]", "yes^[a]"],
  ["CCCCN(CCCC)C(=O)CCC(=O)N(CCCC)CCCC [TBSA, N,N,N′,N′‐tetrabutylsuccindiamide]", "no^[a]"]
]}

###

Molecular target: PPARδ (Homo sapiens, UniProt Q03181)
Construct: expression construct for the full-length human receptor under investigation; expressed in transfected cells; host or cells: human U2-OS cells (ATCC HTB-96), stably transfected
Sequence (Q03181 whole entry): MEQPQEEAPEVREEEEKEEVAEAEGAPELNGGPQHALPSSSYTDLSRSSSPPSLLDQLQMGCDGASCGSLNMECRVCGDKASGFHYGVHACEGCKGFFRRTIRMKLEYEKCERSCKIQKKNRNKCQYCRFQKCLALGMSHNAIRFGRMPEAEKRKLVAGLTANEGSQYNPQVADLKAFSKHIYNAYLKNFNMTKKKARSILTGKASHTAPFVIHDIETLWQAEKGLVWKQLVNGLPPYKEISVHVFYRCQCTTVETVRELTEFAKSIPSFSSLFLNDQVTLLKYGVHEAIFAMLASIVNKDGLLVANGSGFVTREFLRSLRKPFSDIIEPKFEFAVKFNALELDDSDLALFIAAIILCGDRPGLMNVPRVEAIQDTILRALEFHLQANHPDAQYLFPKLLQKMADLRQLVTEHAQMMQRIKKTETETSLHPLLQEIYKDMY
Test: PPARδ CALUX reporter gene assay
Format: cell-based
Set-up: key: –: no effect observed up to the highest test concentration
Settings: PC10, 24 h exposure

{"columns": ["Compound", "Experimental system", "LEC PPARδ"],
 "data": [
  ["CCCCN(C)C(=O)CCC(=O)N(C)CCCC [MBSA, N,N′‐dimethyl‐N,N′‐dibutylsuccindiamide]", "PPARδ (Homo sapiens, UniProt Q03181)", "–"],
  ["CCCCN(CCCC)C(=O)CCC(=O)N(CCCC)CCCC [TBSA, N,N,N′,N′‐tetrabutylsuccindiamide]", "PPARδ (Homo sapiens, UniProt Q03181)", "–"],
  ["CCCCN1CCCC1=O [NBP, N‐Butylpyrrolidinone, reference compound]", "PPARδ (Homo sapiens, UniProt Q03181)", "−2.3 Log M"],
  ["CCCCN(CC)C(=O)CCC(=O)N(CC)CCCC [EBSA, N,N′‐diethyl‐N,N′‐dibutylsuccindiamide]", "PPARδ (Homo sapiens, UniProt Q03181)", "–"]
]}
